- Read-out: Matrix Metallopeptidase 9 (MMP9), MMP9 (gene 4318)
- run_description: BSK_KF3CT_MMP9: BioMAP Diversity Plus: KF3CT Assay for Matrix Metallopeptidase 9 (MMP9) Biomarker Activity (AID 2283074)
- conditions: primary human keratinocytes with fibroblasts; actives raise or lower the signal
- Method: BSK_KF3CT is a cell-based, multiplexed-readout assay that uses keratinocytes and foreskin fibroblasts, a human skin primary cell co-culture, with measurements taken at 24 hours after chemical dosing in a 96-well plate.BSK_KF3CT_MMP9 is an assay component measured in the BSK_KF3CT assay. It measures MMP-9 antibody related to regulation of gene expression using ELISA technology.Data from the assay component BSK_KF3CT_MMP9 was analyzed into 1 assay endpoint. […]
Calls of active or inactive are those of the source. How the source made its calls: active means hit-call score of the fitted dose curve at least 0.9, where 1 is the maximum; inactive means score below 0.9.
Classes used: active, inactive

>  <molecule>
CCOC(=O)c1ccc(C2CCC(NC[C@H](O)COc3ccc(O)c(NS(C)(=O)=O)c3)CC2)cc1 (stereo partly drawn)

>  <discrete_label>
active

$$$$
>  <molecule>
C[C@](N)(Cc1ccc(O)c(O)c1)C(=O)O

>  <discrete_label>
inactive

$$$$
>  <molecule>
COC(=O)c1c(Cl)c(Cl)c(C(=O)OC)c(Cl)c1Cl

>  <discrete_label>
inactive

$$$$
>  <molecule>
CCNc1ccccc1

>  <discrete_label>
inactive

$$$$
>  <molecule>
CC(C)=CCC/C(C)=C/CO

>  <discrete_label>
inactive

$$$$
>  <molecule>
CCCCC(CC)COC(=O)c1ccc(C(=O)OCC(CC)CCCC)cc1 (stereo not drawn)

>  <discrete_label>
inactive

$$$$
>  <molecule>
CC(C)=CCCC(C)=CC=O

>  <discrete_label>
inactive

$$$$
>  <molecule>
Cn1cnc([N+](=O)[O-])c1Sc1ncnc2nc[nH]c12

>  <discrete_label>
inactive

$$$$
>  <molecule>
CC/C(=C\C(=N/O)C(N)=O)C(C)[N+](=O)[O-] (stereo not drawn)

>  <discrete_label>
inactive

$$$$
>  <molecule>
CCOC(=O)COc1ccc2c(c1)CC(NCC(O)c1cccc(Cl)c1)CC2 (stereo not drawn)

>  <discrete_label>
inactive

$$$$
>  <molecule>
CC(=O)OCCC(C)C

>  <discrete_label>
inactive

$$$$
>  <molecule>
COc1ccc(/C=C/S(=O)(=O)NC(=O)c2ccc(C)cc2Cl)cc1

>  <discrete_label>
inactive

$$$$
>  <molecule>
CCC(C)(C)C(=O)O[C@H]1C[C@@H](C)C=C2C=C[C@H](C)[C@H](CC[C@@H]3C[C@@H](O)CC(=O)O3)[C@H]21

>  <discrete_label>
active

$$$$
>  <molecule>
CCCCCCCCCCCCc1ccccc1

>  <discrete_label>
inactive

$$$$
>  <molecule>
CCN(C(=O)c1cc(C)cc(OC[C@H](C)Nc2ccncc2)c1)C(C)C

>  <discrete_label>
inactive

$$$$
>  <molecule>
C=CCCCCCCCCC(=O)O

>  <discrete_label>
inactive

$$$$
>  <molecule>
CC(=O)c1ccc2c(c1)[C@H](NC(=O)c1ccc(F)cc1)[C@@H](O)C(C)(C)O2

>  <discrete_label>
inactive

$$$$
>  <molecule>
CN(C)c1ccc(N=NS(=O)(=O)O)cc1

>  <discrete_label>
inactive

$$$$
>  <molecule>
CC(C)=CCCC(C)CCO (stereo not drawn)

>  <discrete_label>
inactive

$$$$
>  <molecule>
O=C(O)c1cccc(Oc2ccccc2)c1

>  <discrete_label>
inactive

$$$$
>  <molecule>
CC1=CC(=O)CC(C)(C)C1

>  <discrete_label>
inactive

$$$$
>  <molecule>
O=C(O)c1cccc(N(Cc2cccnc2)c2ccc(OC(F)F)c(OC(F)F)c2)c1

>  <discrete_label>
inactive

$$$$
>  <molecule>
CCCC(=O)OCC

>  <discrete_label>
inactive

$$$$
>  <molecule>
O=c1n(CC2CO2)c(=O)n(CC2CO2)c(=O)n1CC1CO1 (stereo not drawn)

>  <discrete_label>
active

$$$$
>  <molecule>
O=C(O)CC(O)C(=O)O (stereo not drawn)

>  <discrete_label>
inactive

$$$$
>  <molecule>
CCOCCOCCOCCO

>  <discrete_label>
inactive

$$$$
>  <molecule>
On1ccccc1=S

>  <discrete_label>
active

$$$$
>  <molecule>
CCCCCCc1ccc(O)cc1O

>  <discrete_label>
active

$$$$

Source of measurements: PubChem BioAssay (EPA / NIEHS)
